Value source: the supplement of paper PMC10065799

# measured.target: SHP2-C SH2;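 further: peptide library displayed on the E. coli surface as eCPX fusions, selected cells deep-sequenced, score is each peptide's frequency after selection divided by its frequency in the input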
# experiment.description: SH2 binding enrichment of the phosphorylated peptide, bacterial display (enrichment ratio); higher = better substrate or ligand; peptides without Tyr show the background
observed.property: SH2 binding enrichment
Answers are plain numbers.

KRLYAYKMLMA [TMC2_Y209_Q205R] ... 1.68
RLLREYQELMN [KRT75_Y434] ... 0.995
EEGESDVCSSD [DCX_Y125_Y125D] ... 0.924

Each sequence below has a recorded value; state its SH2 binding enrichment.
1. ISIFFYAKGQP [MPZ_Y82_H81Y_YF]
2. AVLVQYYMEHH [PTPN11_Y80_E76V]
3. QRHFVYFFSFL [PTEN_Y176_R173H_YF]
4. WHFTFYNELRV [ACTC1_Y93_H90Y_YF]
5. ADEEFYEIIAA [FEStide_F_2014]

1. 0.529
2. 1.87
3. 0.842
4. 0.483
5. 0.605

Kindly give each listed record's SH2 binding enrichment.
1. KDQPDYKFQPR [SOX9_Y172_H169Q_YF]
2. QTEAPYRFIFM [PTPN11_Y511_Q510P_YF]
3. SQQTFYPVSNM [ABCD1_Y181_R182P_YF]
4. TKDTFYKQPVF [GBA_Y451_M455V]
5. VGTKRYMASEV [ACVRL1_Y375_P378S]
6. SELVRYDARVH [MET_Y971]

1. 0.829
2. 0.751
3. 0.644
4. 0.66
5. 0.599
6. 0.737

Give SH2 binding enrichment for each of the items listed below.
1. EAMPDYKKQLR [SPATA18_Y229_S227P]
2. RRYVYYYSYLL [PTEN_Y177]
3. NGLVAYKDGKL [PMM2_Y76]
4. DIDKIYIRTGI [PIK3CA_Y355_V356I]
5. KGELCYMHSRV [ABCD1_Y281_R280C]
6. ELAKYYKLHHI [AK7_Y391_N389K]

1: 0.649; 2: 0.65; 3: 0.669; 4: 0.896; 5: 0.883; 6: 0.93

Would you mind giving SH2 binding enrichment for every sequence in the list below?
1. QDGYSYPSRQM [LDLR_Y847]
2. FRQNGYIPGSN [PCDHGA1_Y895_V894G_YF]
3. RLLRGHDQFAF [HLA-B_Y137_YF]
4. MKDLTYSSLCF [ALOX5_Y446_A447S]
5. GYDHSYYFIAT [ESD_Y262]
6. LLREWYVQDPY [SIX3_Y225_L226V]
7. KDHPDYKYQAR [SOX10_Y171_P175A]
8. LINPKYSVEEE [PCDH19_Y27_L25P]

1. 0.732
2. 0.607
3. 0.724
4. 0.617
5. 0.727
6. 0.856
7. 0.738
8. 0.548

Consider the sequence SDLTDYLMKIL [ACTA1_Y190_R185S] and give its measured SH2 binding enrichment.
0.903

---

# Test system: AncSZ
# experiment.description: phosphorylation enrichment, bacterial display (enrichment ratio); higher = better substrate or ligand; peptides without Tyr show the background
observed.property: phosphorylation enrichment

// each listed sequence needs a value for phosphorylation enrichment
1. RPYSPYIIRGM [LRP5_Y1531_R1529S]
2. RHPLDYLRQYP [NARS2_Y138_E137D]

[0.886, 0.914]

Endpoint output: phosphorylation enrichment of QSPQLYKQMCI [DARS1_Y253] . Value?
0.881

---

# measured.target: FGFR1 (UniProt P11362)
# Sequence (P11362 whole entry, looked up): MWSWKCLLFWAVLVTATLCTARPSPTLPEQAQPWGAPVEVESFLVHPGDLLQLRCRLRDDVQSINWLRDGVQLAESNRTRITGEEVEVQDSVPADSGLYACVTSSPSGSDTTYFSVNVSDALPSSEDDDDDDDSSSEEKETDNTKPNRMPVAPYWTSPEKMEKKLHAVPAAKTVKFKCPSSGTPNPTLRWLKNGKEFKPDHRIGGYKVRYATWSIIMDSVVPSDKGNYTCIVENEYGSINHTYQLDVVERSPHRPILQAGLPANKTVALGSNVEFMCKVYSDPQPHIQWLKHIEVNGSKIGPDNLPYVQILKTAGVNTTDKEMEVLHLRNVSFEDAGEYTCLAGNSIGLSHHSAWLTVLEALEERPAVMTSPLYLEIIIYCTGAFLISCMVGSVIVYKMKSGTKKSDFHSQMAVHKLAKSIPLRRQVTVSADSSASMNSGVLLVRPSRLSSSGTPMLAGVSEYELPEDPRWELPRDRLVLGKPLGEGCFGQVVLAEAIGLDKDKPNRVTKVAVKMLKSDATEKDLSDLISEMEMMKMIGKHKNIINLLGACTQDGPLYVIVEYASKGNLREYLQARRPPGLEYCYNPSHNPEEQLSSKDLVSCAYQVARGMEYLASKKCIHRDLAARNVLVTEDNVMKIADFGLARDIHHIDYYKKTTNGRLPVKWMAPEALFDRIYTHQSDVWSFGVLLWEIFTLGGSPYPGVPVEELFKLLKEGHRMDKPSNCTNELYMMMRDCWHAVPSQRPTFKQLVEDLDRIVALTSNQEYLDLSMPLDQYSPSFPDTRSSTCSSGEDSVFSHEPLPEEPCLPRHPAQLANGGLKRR
# experiment.description: phosphorylation enrichment, bacterial display (enrichment ratio); higher = better substrate or ligand; peptides without Tyr show the background
Kindly supply the reported phosphorylation enrichment values for the records listed here.
Answers are plain numbers.

// below: answered sequences
GVRLFYRVRES [RB1_Y454_M457R_YF] ... 0.513
ECKLLYSRKEG [PTPN11_Y263] ... 0.487
KTNVSYFGALD [CACNB4_Y103_C104F] ... 0.509

Shifting focus to the sequence that follows.
Entry under review: KQNSLYSFSDH [CCDC82_Y331] . Reported phosphorylation enrichment?
0.489

---

# measured.target: EPHB2 (UniProt P29323)
# Sequence (P29323 whole entry, looked up): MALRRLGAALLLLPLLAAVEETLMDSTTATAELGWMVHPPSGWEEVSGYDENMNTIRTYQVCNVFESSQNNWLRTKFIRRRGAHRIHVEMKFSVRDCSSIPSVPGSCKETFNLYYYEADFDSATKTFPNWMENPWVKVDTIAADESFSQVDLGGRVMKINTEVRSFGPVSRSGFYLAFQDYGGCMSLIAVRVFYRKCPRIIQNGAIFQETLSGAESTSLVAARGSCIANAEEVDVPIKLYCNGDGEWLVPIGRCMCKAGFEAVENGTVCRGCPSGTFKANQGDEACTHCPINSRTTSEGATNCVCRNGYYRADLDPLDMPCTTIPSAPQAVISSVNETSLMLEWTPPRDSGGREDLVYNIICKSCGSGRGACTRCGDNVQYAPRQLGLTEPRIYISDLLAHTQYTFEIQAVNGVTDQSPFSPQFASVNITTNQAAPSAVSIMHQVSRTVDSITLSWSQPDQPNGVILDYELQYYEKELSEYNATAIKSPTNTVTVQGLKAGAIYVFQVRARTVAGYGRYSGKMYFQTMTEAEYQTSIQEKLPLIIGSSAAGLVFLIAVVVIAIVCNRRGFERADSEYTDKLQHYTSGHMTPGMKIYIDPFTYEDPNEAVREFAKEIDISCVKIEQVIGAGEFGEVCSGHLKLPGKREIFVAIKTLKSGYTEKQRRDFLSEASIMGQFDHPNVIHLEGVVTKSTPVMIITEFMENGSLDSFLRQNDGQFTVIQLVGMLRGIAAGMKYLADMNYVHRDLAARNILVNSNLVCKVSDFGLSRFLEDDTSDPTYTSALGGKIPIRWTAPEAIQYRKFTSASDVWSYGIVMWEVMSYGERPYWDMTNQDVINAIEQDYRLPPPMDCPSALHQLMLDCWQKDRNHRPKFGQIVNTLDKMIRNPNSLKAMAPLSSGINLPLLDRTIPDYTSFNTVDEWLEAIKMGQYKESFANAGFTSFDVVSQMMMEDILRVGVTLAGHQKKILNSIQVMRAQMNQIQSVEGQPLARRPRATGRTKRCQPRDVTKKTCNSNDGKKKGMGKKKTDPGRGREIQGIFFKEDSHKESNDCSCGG
# experiment.description: phosphorylation enrichment, bacterial display (enrichment ratio); higher = better substrate or ligand; peptides without Tyr show the background
# if value of phosphorylation enrichment reaches 0.6, tag class 1; if it stays below, tag class 0

Here's what some known entries look like.
AVLSLYASGRN [ACTA1_Y145_T150N] ... class 0
AHPIIYDIIEA [PYKtide_D_2014] ... class 1
ALEHKYWALGQ [MAP1A_Y1555_Q1553H] ... class 0
INMKKYCKKDY [NTN1_Y490] ... class 0

Please check the record LGLDECLDKLK [FMNL2_Y352_Y352C] and state if its phosphorylation enrichment is at or above 0.6.
class 1

Moving on to TGDFGYRAPGF [TNS2_Y668_YF]
class 0

Also need KMMGRYEMYAR [UPB1_Y362_T359M] , thanks.
class 0

// next record NWGSPYKSNGC [ZNF347_Y261]
class 0

Ok, now GLSDPYVKIHL [SYT2_Y309]
class 1

---

# measured.target: EPHB2 (UniProt P29323)
# experiment.description: phosphorylation enrichment, bacterial display (enrichment ratio); higher = better substrate or ligand; peptides without Tyr show the background
observed.property: phosphorylation enrichment
Give bare numbers.

For orientation, consider the following solved cases.
IMAYFYMCDSA [CASD1_Y382_R386S] ... 0.643
KPRKPYTIKKP [BRD2_Y715] ... 0.765
ADGLEYSRTGL [MMUT_Y287] ... 1.6
PTDCVYVMPTV [MYO7A_Y1668_S1666C] ... 2.4
GLSAPYVKIHL [SYT2_Y309_D307A] ... 0.423

Continue with the sequence presented below.
What phosphorylation enrichment value was documented for this sequence, WHFTFYNELRV [ACTC1_Y93_H90Y_YF] ?
0.671

---

So I've got a bunch of sequences here, and I need their phosphorylation enrichment values.
# System: c-Abl (mouse)
# experiment.description: phosphorylation enrichment, bacterial display (enrichment ratio); higher = better substrate or ligand; peptides without Tyr show the background
Answers are plain numbers.

SELVRYDARVH [MET_Y971] ... 0.523
EILLSYLRTGF [TGM1_Y365_YF] ... 0.492
SSPRRYTIAAL [TTR_Y125_G121S] ... 0.4
LSGVIYVILRK [PMP22_Y153] ... 0.923
EYGRRYGFSCQ [CCDC93_Y209_R213C] ... 0.881

Go through the items and report each one's phosphorylation enrichment.
1. TEQDPYNNIVH [MMUT_Y364_R369H]
2. HFVDEYDQTIE [KRAS_Y32_P34Q]

1. 0.851
2. 1.01

Dear reader, for each entry below, please note its phosphorylation enrichment.
1. HGEAYYSEVKP [PAK5_Y182]
2. VISNAYVDLAP [HSD17B4_Y602]
3. WHFTFYNELRV [ACTC1_Y93_H90Y_YF]
4. ENAGYYFQVSA
5. ELTAKYLNFFQ [P3H4_Y181_YF]
6. ISTAGYSIPEL [EDAR_Y406]

1: 1.79; 2: 0.475; 3: 1.27; 4: 0.603; 5: 0.765; 6: 1.46

Look up phosphorylation enrichment for the entries below, preserving their order.
1. KFVVVYFREID [IL17RB_Y447_YF]
2. RRVLVYGDRGA [QDPR_Y16_G18D]
3. RLRVVYPWTQR [HBB_Y36_L33R]

1. 0.724
2. 0.445
3. 0.484

// each sequence listed below needs its phosphorylation enrichment
1. PGLRGYPGLSG [COL4A2_Y306]
2. ILIFHYAKGQP [MPZ_Y82_S78L]
3. LTTEVYFPSIK [C5orf64_Y60_A57T]
4. SDLTDYLMKIL [ACTA1_Y190_R185S]
5. IRQDDYESLKE [MTR_Y921_H920D]
6. QEGPEYWDRNT [HLA-B_Y83]
7. HSPLRYTSILT [OR51B6_Y130_R125H]
8. HIAKGYRRDNP [HARS1_Y156_V155G]

[0.508, 0.904, 0.766, 0.789, 1, 0.757, 0.547, 0.543]

Need phosphorylation enrichment for each of these sequences.
1. LEQRPYRRGSE [KCNJ12_Y427_E430G]
2. PPVVNYEEDAR [FER_Y402]

[0.594, 0.824]

Would you mind giving phosphorylation enrichment for every sequence in the list below?
1. RKETFYILSCR [GUCY2C_Y681_T682I]
2. KPIETYFSKNY [PLP1_Y50_L46P]
3. DFPMGYPSFLA [TBCK_Y153_I151M_YF]
4. IHRWVYPLTPE [EIF2B5_Y319_R315H]

1.1
0.473
0.592
0.621
